B1: glmS ribozyme (parent)
chain: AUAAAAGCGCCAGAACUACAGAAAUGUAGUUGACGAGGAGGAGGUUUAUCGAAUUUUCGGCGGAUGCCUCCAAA

Variants of: B1
method_summary: self-cleavage kobs at 40 uM GlcN6P; higher = faster cleavage; RNA array
assay_context: with glucosamine-6-phosphate
Variants at the floor of the assay were thinned out.
Record form. Attribute: self-cleavage kobs at 40 uM GlcN6P. Fill in for each entry.

Give reported self-cleavage kobs at 40 uM GlcN6P value for A36C A39G G60U
< 1e-05 s⁻¹

Give recorded self-cleavage kobs at 40 uM GlcN6P. C10G A33U G43U G63C C71G
< 1e-05 s⁻¹

Look up and state reported self-cleavage kobs at 40 uM GlcN6P for C11U U31G
0.000105 s⁻¹

Give the measured self-cleavage kobs at 40 uM GlcN6P for A6G C67A
< 1e-05 s⁻¹

Recall and state the measured self-cleavage kobs at 40 uM GlcN6P for G37A A42C U47G .
< 1e-05 s⁻¹

Provide only the value of recorded self-cleavage kobs at 40 uM GlcN6P for C10U G37C
< 1e-05 s⁻¹

Tell us which self-cleavage kobs at 40 uM GlcN6P value is on record for U55C C70U
2.44e-05 s⁻¹

Query self-cleavage kobs at 40 uM GlcN6P for C8U U55C
< 1e-05 s⁻¹

Complete the entry with self-cleavage kobs at 40 uM GlcN6P for C50G U65C C67U
6.84e-05 s⁻¹

Please look at this variant and report its self-cleavage kobs at 40 uM GlcN6P: A36C U49A G62C C70U
< 1e-05 s⁻¹

For the variant G7C U56A G60U G62A , give its measured self-cleavage kobs at 40 uM GlcN6P value.
< 1e-05 s⁻¹

Output measured self-cleavage kobs at 40 uM GlcN6P for this item: G29A G32A
2.33e-05 s⁻¹

Answer with the recorded self-cleavage kobs at 40 uM GlcN6P of A6G A14C C34A C68A only.
< 1e-05 s⁻¹

Tell me measured self-cleavage kobs at 40 uM GlcN6P for U31C A36G A39G U47C please.
< 1e-05 s⁻¹

Query self-cleavage kobs at 40 uM GlcN6P for G9U A15C G44C U47C
< 1e-05 s⁻¹

// fetch self-cleavage kobs at 40 uM GlcN6P given entry U30C A52U
< 1e-05 s⁻¹

Return value of self-cleavage kobs at 40 uM GlcN6P for input C8U G59U , no commentary.
< 1e-05 s⁻¹

Please report the measured self-cleavage kobs at 40 uM GlcN6P for C34G G62A
< 1e-05 s⁻¹

Tell me self-cleavage kobs at 40 uM GlcN6P reported for A42C U55G
< 1e-05 s⁻¹

Identify self-cleavage kobs at 40 uM GlcN6P associated with the variant C10U A52U
< 1e-05 s⁻¹

State its self-cleavage kobs at 40 uM GlcN6P for this variant: A6U G35C C61U
< 1e-05 s⁻¹

Supply reported self-cleavage kobs at 40 uM GlcN6P belonging to this variant: U56G G62U C68G
< 1e-05 s⁻¹

Identify the reported self-cleavage kobs at 40 uM GlcN6P for the following entry. C11U A15C A48U G60A
< 1e-05 s⁻¹

In one line, give reported self-cleavage kobs at 40 uM GlcN6P of the entry A12U A14U G32U .
< 1e-05 s⁻¹

Entry U57G U65G needs its self-cleavage kobs at 40 uM GlcN6P filled in; supply it.
< 1e-05 s⁻¹

Item G41A C67G C70U : provide self-cleavage kobs at 40 uM GlcN6P
4.65e-05 s⁻¹

Quote self-cleavage kobs at 40 uM GlcN6P reported for C11U A36G please.
< 1e-05 s⁻¹

Tell us which self-cleavage kobs at 40 uM GlcN6P value is on record for A36U C50G U69G
0.000397 s⁻¹

Output measured self-cleavage kobs at 40 uM GlcN6P for this item: G9U G29U A42G U65G
< 1e-05 s⁻¹

Using known records, supply self-cleavage kobs at 40 uM GlcN6P for A39C A42G
0.000141 s⁻¹

Determine from records and report self-cleavage kobs at 40 uM GlcN6P for G32C A36U
< 1e-05 s⁻¹

// fetch self-cleavage kobs at 40 uM GlcN6P given entry A42G G62A
< 1e-05 s⁻¹

Please report self-cleavage kobs at 40 uM GlcN6P for the following variant: A6C A14U G41U C70U
< 1e-05 s⁻¹

Specify measured self-cleavage kobs at 40 uM GlcN6P for G29U C50G A53G U55G C67G .
0.000349 s⁻¹

For the variant C58G A64C , give its reported self-cleavage kobs at 40 uM GlcN6P.
< 1e-05 s⁻¹

Please supply the value of reported self-cleavage kobs at 40 uM GlcN6P for the item G37U A52U
< 1e-05 s⁻¹

Annotate the variant G9A C34A G44U U54A C68A with its measured self-cleavage kobs at 40 uM GlcN6P.
< 1e-05 s⁻¹

State its self-cleavage kobs at 40 uM GlcN6P: C10G A42C U47A G59U
< 1e-05 s⁻¹

Using known records, supply self-cleavage kobs at 40 uM GlcN6P for C10U G13C G40A
< 1e-05 s⁻¹

Look up and report measured self-cleavage kobs at 40 uM GlcN6P for this entry: G7U U45G
< 1e-05 s⁻¹

Query self-cleavage kobs at 40 uM GlcN6P for G35U G37C G60U
< 1e-05 s⁻¹

Identify the reported self-cleavage kobs at 40 uM GlcN6P for the following entry. A6C C8G
< 1e-05 s⁻¹

Kindly indicate its recorded self-cleavage kobs at 40 uM GlcN6P. Item: C10A G43C
< 1e-05 s⁻¹

State its self-cleavage kobs at 40 uM GlcN6P for this variant: U54A C67G
8.43e-05 s⁻¹

Given G44A C71G , respond with its self-cleavage kobs at 40 uM GlcN6P.
< 1e-05 s⁻¹

State its self-cleavage kobs at 40 uM GlcN6P: A12G
1.01e-05 s⁻¹

Please indicate self-cleavage kobs at 40 uM GlcN6P recorded for A64G U69A
< 1e-05 s⁻¹

Query self-cleavage kobs at 40 uM GlcN6P for A12U U45G U46A
0.000262 s⁻¹

Could you please provide reported self-cleavage kobs at 40 uM GlcN6P for G32U U56A C61G C67A ? Thanks!
7.99e-05 s⁻¹

Give the reported self-cleavage kobs at 40 uM GlcN6P for this variant. C11U A64C
< 1e-05 s⁻¹

Indicate its recorded self-cleavage kobs at 40 uM GlcN6P; the variant in question is C16U G37U
< 1e-05 s⁻¹

Give self-cleavage kobs at 40 uM GlcN6P for the following variant: A42G C71U
0.000864 s⁻¹

Output measured self-cleavage kobs at 40 uM GlcN6P for this item: G51U G63U A64C
< 1e-05 s⁻¹

Assign self-cleavage kobs at 40 uM GlcN6P to the following record: A12U A36G U54A
< 1e-05 s⁻¹

Supply measured self-cleavage kobs at 40 uM GlcN6P of C58A G60A in your reply.
< 1e-05 s⁻¹

Consider the variant G37A G43A . State its measured self-cleavage kobs at 40 uM GlcN6P.
< 1e-05 s⁻¹

Tell us which self-cleavage kobs at 40 uM GlcN6P value is on record for C11A G60U
< 1e-05 s⁻¹

Fill in reported self-cleavage kobs at 40 uM GlcN6P for this entry: C11G U31A
< 1e-05 s⁻¹

Provide one value: measured self-cleavage kobs at 40 uM GlcN6P of U56C G62U
< 1e-05 s⁻¹

Quote self-cleavage kobs at 40 uM GlcN6P reported for A20C please.
0.00153 s⁻¹

Give the measured self-cleavage kobs at 40 uM GlcN6P for A33U C71A
< 1e-05 s⁻¹

Provide self-cleavage kobs at 40 uM GlcN6P value for the following variant: G41A C71A
2.7e-05 s⁻¹

Given G29A U54C , respond with its self-cleavage kobs at 40 uM GlcN6P.
0.000148 s⁻¹

Please report self-cleavage kobs at 40 uM GlcN6P for the following variant: G13C C16A G37U
< 1e-05 s⁻¹

Please give measured self-cleavage kobs at 40 uM GlcN6P of the following entry: C50G C70A
8.32e-05 s⁻¹

Given U49A C58A , respond with its self-cleavage kobs at 40 uM GlcN6P.
< 1e-05 s⁻¹

Tell me measured self-cleavage kobs at 40 uM GlcN6P for A36U A52G C70A please.
5.42e-05 s⁻¹

Tell me self-cleavage kobs at 40 uM GlcN6P reported for G38U A48G G51U
< 1e-05 s⁻¹

Tell us which self-cleavage kobs at 40 uM GlcN6P value is on record for G13C U47C
< 1e-05 s⁻¹

Return the recorded self-cleavage kobs at 40 uM GlcN6P value; entry: A14G U55C A64C
< 1e-05 s⁻¹

Indicate the recorded self-cleavage kobs at 40 uM GlcN6P value for this variant: A42C G63A C67G
< 1e-05 s⁻¹

Entry A6G C16G needs its self-cleavage kobs at 40 uM GlcN6P filled in; supply it.
< 1e-05 s⁻¹

Return self-cleavage kobs at 40 uM GlcN6P for the following variant: G43C C58A
< 1e-05 s⁻¹

Annotate the variant G35C C68A C71U with its measured self-cleavage kobs at 40 uM GlcN6P.
< 1e-05 s⁻¹

Return self-cleavage kobs at 40 uM GlcN6P (reported value) for this variant: A42G G43U
< 1e-05 s⁻¹

Give the value of self-cleavage kobs at 40 uM GlcN6P reported for the following: U47G U55G
0.000247 s⁻¹

Hello, please tell me recorded self-cleavage kobs at 40 uM GlcN6P for this one: A15G U46G
0.000184 s⁻¹

Give the reported value of self-cleavage kobs at 40 uM GlcN6P for this record: C8U G9A
< 1e-05 s⁻¹

Give the value of self-cleavage kobs at 40 uM GlcN6P reported for the following: C16A A39U G51U
< 1e-05 s⁻¹

Please list self-cleavage kobs at 40 uM GlcN6P recorded for the variant U54G U69G
3.86e-05 s⁻¹

Specify self-cleavage kobs at 40 uM GlcN6P for U56G C70G and stop.
4.14e-05 s⁻¹

Give the reported value of self-cleavage kobs at 40 uM GlcN6P for this record: C8G G9A G29U U56A A64G C70A
< 1e-05 s⁻¹

Tell me self-cleavage kobs at 40 uM GlcN6P reported for G35C G63U C71A
< 1e-05 s⁻¹

Quote self-cleavage kobs at 40 uM GlcN6P reported for A14G A52G please.
9.65e-05 s⁻¹

Hello, please tell me recorded self-cleavage kobs at 40 uM GlcN6P for this one: A39U U46C
0.000154 s⁻¹

Output measured self-cleavage kobs at 40 uM GlcN6P for this item: G43A C70G
< 1e-05 s⁻¹

Identify self-cleavage kobs at 40 uM GlcN6P associated with the variant G9A C58G U65C
< 1e-05 s⁻¹

Tell me self-cleavage kobs at 40 uM GlcN6P reported for C11U A42G
9.14e-05 s⁻¹

Quickly give me recorded self-cleavage kobs at 40 uM GlcN6P for A15C A53C
2.74e-05 s⁻¹

Quote self-cleavage kobs at 40 uM GlcN6P reported for C8A C68A please.
< 1e-05 s⁻¹

Answer with reported self-cleavage kobs at 40 uM GlcN6P of A15G C50G C68U
0.000179 s⁻¹
